target of assay: ROCK2 (Homo sapiens)
Sequence (O75116 whole entry, species assumed): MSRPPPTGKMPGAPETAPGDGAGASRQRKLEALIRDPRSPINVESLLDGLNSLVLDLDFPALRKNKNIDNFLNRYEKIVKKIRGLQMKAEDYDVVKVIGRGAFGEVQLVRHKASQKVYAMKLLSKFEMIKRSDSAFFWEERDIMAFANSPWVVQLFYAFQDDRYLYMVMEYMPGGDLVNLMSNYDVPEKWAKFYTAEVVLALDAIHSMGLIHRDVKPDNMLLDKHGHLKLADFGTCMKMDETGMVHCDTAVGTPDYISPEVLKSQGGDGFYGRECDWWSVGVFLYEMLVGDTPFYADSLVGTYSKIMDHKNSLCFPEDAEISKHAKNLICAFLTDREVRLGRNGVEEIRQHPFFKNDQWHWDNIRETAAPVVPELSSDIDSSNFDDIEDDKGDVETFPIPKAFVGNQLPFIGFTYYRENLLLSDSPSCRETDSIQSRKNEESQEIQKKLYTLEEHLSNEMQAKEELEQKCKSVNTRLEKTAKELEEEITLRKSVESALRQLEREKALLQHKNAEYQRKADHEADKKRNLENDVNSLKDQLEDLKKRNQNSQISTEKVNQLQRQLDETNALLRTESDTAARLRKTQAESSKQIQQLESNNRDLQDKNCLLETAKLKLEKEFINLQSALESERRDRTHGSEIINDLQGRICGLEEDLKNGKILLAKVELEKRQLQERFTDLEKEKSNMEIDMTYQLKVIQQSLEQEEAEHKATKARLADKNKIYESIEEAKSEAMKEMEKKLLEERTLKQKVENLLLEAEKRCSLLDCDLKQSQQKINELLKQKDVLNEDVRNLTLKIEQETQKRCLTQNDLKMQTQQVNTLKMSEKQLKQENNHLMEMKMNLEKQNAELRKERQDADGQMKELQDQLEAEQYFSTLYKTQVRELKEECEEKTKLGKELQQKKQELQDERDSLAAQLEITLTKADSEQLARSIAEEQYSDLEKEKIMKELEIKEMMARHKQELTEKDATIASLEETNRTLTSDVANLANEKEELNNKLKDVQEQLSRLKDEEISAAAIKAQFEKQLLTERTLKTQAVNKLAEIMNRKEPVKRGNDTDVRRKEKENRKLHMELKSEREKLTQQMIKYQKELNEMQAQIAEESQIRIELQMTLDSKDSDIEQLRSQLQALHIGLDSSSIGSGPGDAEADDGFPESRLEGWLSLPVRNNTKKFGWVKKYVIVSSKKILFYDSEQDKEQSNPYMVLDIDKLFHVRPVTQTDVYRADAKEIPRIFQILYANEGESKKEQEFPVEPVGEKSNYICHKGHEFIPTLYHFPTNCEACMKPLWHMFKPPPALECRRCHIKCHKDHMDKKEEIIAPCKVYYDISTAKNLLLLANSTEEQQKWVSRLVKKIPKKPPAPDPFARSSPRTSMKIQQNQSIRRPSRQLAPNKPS
Structures can show the parent of a compound that is named as a salt.
observed property: IC50

Consider the molecule shown here: [H][C@]1(c2n[nH]c(=O)c3ccccc32)C[C@]2(C[C@@H](NC(=O)c3ccc(-c4cn[nH]c4)c(C#N)c3)C2)C1 (stereo partly drawn) What is its recorded IC50?
0.2 to 2 nM

Queued: [H][C@]1(c2n[nH]c(=O)c3ccccc32)C[C@]2(C[C@@H](NC(=O)c3cnc4cc(OC5CCS(=O)(=O)CC5)ccn34)C2)C1 (stereo partly drawn)
0.2 to 2 nM

Cool, now [H][C@]1(c2n[nH]c(=O)c3ccccc32)C[C@]2(C[C@@H](NC(=O)c3cnn4cc(OCC(C)(C)OC(=O)CN)ccc34)C2)C1 (stereo partly drawn) [Example 268, TFA]
0.2 to 2 nM

Please answer likewise for Cc1nc(N2CCC3CC32)sc1C(=O)NC1CC2(C1)CC(c1n[nH]c(=O)c3ccccc13)C2 (stereo not drawn)
2.01 to 5 nM

Queued: [H][C@]1(c2n[nH]c(=O)c3ccccc32)C[C@]2(C[C@@H](NC(=O)c3cc4cc(OCc5ccccc5)ccc4[nH]3)C2)C1 (stereo partly drawn)
15.1 to 100 nM

Please turn your attention to the following entry.
Look up IC50 for this molecule: CC(=O)N1CCc2c(C(=O)N[C@H]3CC4(C3)C[C@H](c3n[nH]c(=O)c5ccccc53)C4)csc2C1 (stereo partly drawn)
5.1 to 15 nM

Recorded values, source patent US9902702B2.
